Data provenance is ChEMBL document CHEMBL1134017.

Reported IC50 values for the following compounds.
- target_or_test_system: Matrix metalloproteinase-9 (Homo sapiens, UniProt P14780)
- Sequence (P14780 whole entry): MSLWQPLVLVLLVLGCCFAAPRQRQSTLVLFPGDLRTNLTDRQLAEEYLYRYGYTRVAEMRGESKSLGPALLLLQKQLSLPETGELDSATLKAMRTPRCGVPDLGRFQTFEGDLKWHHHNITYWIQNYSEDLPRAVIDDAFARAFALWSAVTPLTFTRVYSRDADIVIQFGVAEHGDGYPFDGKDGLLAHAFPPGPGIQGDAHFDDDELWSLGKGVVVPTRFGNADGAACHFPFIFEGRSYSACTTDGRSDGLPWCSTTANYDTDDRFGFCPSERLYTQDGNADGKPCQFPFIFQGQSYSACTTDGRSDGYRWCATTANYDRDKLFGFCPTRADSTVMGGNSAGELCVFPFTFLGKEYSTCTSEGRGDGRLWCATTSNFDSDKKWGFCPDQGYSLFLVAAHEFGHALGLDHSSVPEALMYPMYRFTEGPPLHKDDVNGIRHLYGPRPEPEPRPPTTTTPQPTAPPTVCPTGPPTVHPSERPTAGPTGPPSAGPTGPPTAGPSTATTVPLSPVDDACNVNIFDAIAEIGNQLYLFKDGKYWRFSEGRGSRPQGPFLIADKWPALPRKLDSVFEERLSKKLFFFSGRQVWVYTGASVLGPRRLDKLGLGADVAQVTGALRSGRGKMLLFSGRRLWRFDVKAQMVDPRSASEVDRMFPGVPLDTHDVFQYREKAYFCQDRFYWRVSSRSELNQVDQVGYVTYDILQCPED
# unit: nM | format: bare number

These solved cases illustrate the format of a correct answer.
COc1ccc(S(=O)(=O)N2CN(C(C)(C)C)C(=O)C[C@@H]2C(=O)NO)cc1 : 1.1
COc1ccc(S(=O)(=O)N2CCN(C(=O)OCc3ccccc3)CC[C@@H]2C(=O)NO)cc1 : 1.8
COCCN1CN(S(=O)(=O)c2ccc(OC)cc2)[C@@H](C(=O)NO)CC1=O : 52.5

Enquiry: Provide IC50, recorded with Matrix metalloproteinase-9 (Homo sapiens, UniProt P14780), of COc1ccc(S(=O)(=O)N2CN(Cc3ccccc3)C(=O)C[C@@H]2C(=O)NO)cc1
Return: 6.8

Enquiry: // fetch IC50; item: COc1ccc(S(=O)(=O)N2CN(C3CCCCC3)C(=O)C[C@@H]2C(=O)NO)cc1 ; system: Matrix metalloproteinase-9 (Homo sapiens, UniProt P14780)
Return: 3.3

Enquiry: Report its IC50 with Matrix metalloproteinase-9 (Homo sapiens, UniProt P14780) as the test system: COc1ccc(S(=O)(=O)N2CCN(S(=O)(=O)c3cn(C)cn3)CC[C@@H]2C(=O)NO)cc1
Return: 5.5

Enquiry: Provide IC50, system Matrix metalloproteinase-9 (Homo sapiens, UniProt P14780), entry COc1ccc(S(=O)(=O)N2CCN(C(C)C)C(=O)C[C@@H]2C(=O)NO)cc1
Return: 4.1

Enquiry: Report value: IC50, system: Matrix metalloproteinase-9 (Homo sapiens, UniProt P14780), compound: COc1ccc(S(=O)(=O)N2CN(C)C(=O)C[C@@H]2C(=O)NO)cc1
Return: 24.1
